# protocol_notes: Safety index, ratio of CC50 for human Huh7.5 cells to EC50 for Hepatitis C virus subtype 2a J6/JFH
readout: selectivity ratio

Below: 3 compounds and their reported selectivity ratio.
CCOS(=O)(=O)/C=C/[C@@H](NC(C)=O)[C@@H](C)O: 6.36
COC(=O)[C@H](C)NC(=O)CCC(=O)/C=C/c1ccc2c(c1)OCO2: 3.19
COC(=O)[C@@H](NC(=O)CCC(=O)/C=C/c1ccccc1)C(C)C: 3.88

Batch of 7 compounds: report selectivity ratio for each.
1. CC(C)[C@H](NC(=O)CCC(=O)/C=C/c1ccccc1)C(=O)O
2. COC(=O)[C@H](C)NC(=O)CCC(=O)/C=C/c1cccnc1
3. COC(=O)[C@@H](NC(=O)CCC(=O)/C=C/c1cccnc1)C(C)C
4. COC(=O)[C@@H](NC(=O)CCC(=O)/C=C/c1ccc2c(c1)OCO2)C(C)C
5. COC(=O)[C@H](C)NC(=O)CCC(=O)/C=C/c1ccccc1
6. CCOS(=O)(=O)/C=C/[C@H](Cc1ccccc1)NC(C)=O
7. C[C@H](NC(=O)CCC(=O)/C=C/c1ccc2c(c1)OCO2)C(=O)O

stdout:
1: > 4.45; 2: 2.34; 3: 1.38; 4: 2.83; 5: 1.37; 6: 3.75; 7: 2.22

Entry under test: CCOS(=O)(=O)/C=C/[C@H](Cc1ccccc1)NC(=O)OC(C)(C)C . Its selectivity ratio was 2.88
